# method: endothelial E-selectin expression blockers – imaging, HUVEC, immunofluorescence, MLSMR starter and 10KST1 sets, primary screen (AID 487);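 also: signal is fraction of cell area covered by stained E-selectin grains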
# reported.conditions: HUVEC TNFalpha-induced E-selectin immunofluorescence imaging, at 2 µM; active compounds read high
measure: inhibition (%)
The reply should be a number in %, with the unit left off.

item_smiles=CCn1c(C)nc2cc(C(=O)OC(C(F)(F)C(F)F)C(F)(F)C(F)F)ccc21 numeric_readout=-20.9
item_smiles=CCOC(=O)N1CCN(c2nc(-c3ccc(Cl)cc3)cs2)CC1 numeric_readout=-94.3
item_smiles=COc1ccc(CNS(=O)(=O)c2ccc3oc(C(=O)O)c(C)c3c2)cc1 numeric_readout=-31.4
item_smiles=CCCCCc1nnc(NC(=O)Cc2cccs2)s1 numeric_readout=-23.7
item_smiles=Cn1c(=O)c2c(nc(CN3CCc4ccccc4C3)n2Cc2cccc(Cl)c2)n(C)c1=O numeric_readout=-22.8

Switching to the query record.
Recorded result, CCCc1cc(C(=O)Nc2ccccc2C(=O)OC)no1 , inhibition: -50.4

This collection of values is drawn from PubChem BioAssay.
